System: PC-3 prostate
Experiment: NCI-60 one-dose screen, 48 h (100 = growth as untreated, 0 = no growth, -100 = all killed)
Settings: 10 µM unless noted
Protocol: Growth inhibition of the PC-3 human tumor cell line is measured as a screen for anti-cancer activity. Cells are grown in 96 well plates and exposed to the test compound for 48 hours. Compounds are tested at a single concentration, which is 10^-5 M for most compounds. The reported endpoint is percent growth (GI% or GIPRCNT), where numbers from 0 - 100% represent growth inhibition, and numbers from -100% - 0 represent cell death. For example, a value of 40 represents 60% growth inhibition. […]
This is part of a sample that, as a whole, favours compounds with a hit. Of some 83,000 tested, about 20% had one in any assay.
Please go through the items and note down their growth.
Give bare numbers, in %.

[[record]]
compound = "COc1cc2nc(SCc3cc(OC)c(OC)c(OC)c3)n(Cc3ccccc3)c(=O)c2cc1OC"
obsvalue = 48.8


Dear reader, for each entry below, please note its growth.
1. CCn1c(=O)c2c(=O)c3c4c(oc3oc2c2ccccc21)C(=O)c1ccccc1C4=O
2. O=C(O)Cc1ccc2c(c1)Cc1cccnc1O2
3. COc1ccc2c(c1)NC(=O)CN2c1nc(C)nc2ccccc12
4. COc1ccc(C2=CC(c3ccc(Oc4ccnc5cc(Cl)ccc45)c(OC)c3)c3c(nc(OC)[nH]c3=O)N2)cc1 (configuration not stated)
5. CC(C)C(C(=O)CCN(C)C)c1ccc(Cl)cc1 (configuration not stated)
6. CC/C=C\C/C=C\C[C@H]1C/C=C2/C(=O)C=C[C@H]2C/C=C\CCC(=O)O1
7. Cc1ccc(S(=O)(=O)OCC(=O)Nc2ccc(C(=O)O)c(O)c2)cc1
8. CN(C)c1ccc(C2CC(c3ccccc3)=NN2/C=C2\SC(=O)NC2=O)cc1 (configuration not stated)

Result:
1: 42.4; 2: 101; 3: 15.1; 4: 54.9; 5: 86.9; 6: -18.9; 7: 91.3; 8: 91.3

Dear reader, for each entry below, please note its growth.
1. Cc1ccc(C2=NN(c3ccc(S(=O)(=O)NC(=O)NCc4ccccc4)cc3)C(c3ccc(N(C)C)cc3)C2)c(C)c1 (configuration not stated)
2. COc1ccc(/C(=N/O)c2cc(F)c(F)c(OC)c2F)cc1O
3. COc1ccc(/C=C/C(=O)c2cccc(B(O)O)c2)cc1O
4. C=CCOc1cccc(/C=C/C(=O)c2sc(Nc3cccnc3)nc2C)c1
5. COc1cc(C2C=C(C)N=C3SC=CN32)cc(OC)c1OC (configuration not stated)
6. Cc1ccc(S(=O)(=O)NCCCNc2nccc(-c3c(-c4ccccc4)nc4sccn34)n2)cc1
7. C=CC(=O)N[C@H](/C=C/C(=O)OCC)Cc1ccc(-c2cc(Cl)cc(Cl)c2)cc1

Result:
32.7
21.5
59.9
44.6
94.5
30.9
60.7

* * *

system: NCI-H460 lung; assay: NCI-60 one-dose screen, 48 h; settings: 10 µM unless noted
The panel holds about 83,000 compounds, 20% with a hit somewhere; the sample as a whole holds those more often. Calls of active or inactive are those of the source. The calls were made as follows: active = growth percent below 10; inactive = the rest.
Hi there, use one of these labels in your reply, thanks! active, inactive

Known results for molecules:
[[record]]
molecule = "CCCCCCCCCCCCCCCCC(Br)C(=O)O (stereo unspecified)"
targetdesc = "NCI-H460 lung"
cat = "inactive"

[[record]]
molecule = "COc1cccc(-c2nc3sccn3c2-c2ccnc(NCCNS(=O)(=O)c3ccccc3)n2)c1"
targetdesc = "NCI-H460 lung"
cat = "inactive"

[[record]]
molecule = "COc1ccc(N=C2NN=C(c3ccc(F)cc3)CS2)cc1OC"
targetdesc = "NCI-H460 lung"
cat = "inactive"

[[record]]
molecule = "NC(=O)c1ccc2c(c1)OCO2"
targetdesc = "NCI-H460 lung"
cat = "inactive"

[[record]]
molecule = "CCNCc1ccncc1"
targetdesc = "NCI-H460 lung"
cat = "inactive"


Q: How was O=c1oc2cc(OS(=O)(=O)c3ccc(F)cc3)ccc2c2c1CCCCC2 classified in this test?
Result: inactive

Q: Now the same for Oc1ccc(Cl)cc1-c1cc(-c2ccc(Cl)cc2)n[nH]1
Result: inactive

Q: Now the same for COc1ccc2c(c1)C=CC(C#N)N2C(=O)c1ccccc1 (stereo unspecified)
Result: active

Q: Now the same for Nc1nn2cc(-c3ccc(Cl)s3)nc2c2ccccc12
Result: inactive

Q: Now the same for COC(=O)CCCCN=Cc1c(O)c(O)c(C(C)C)c2cc(C)c(-c3c(C)cc4c(C(C)C)c(O)c(O)c(C=NCCCCC(=O)OC)c4c3O)c(O)c12
Result: active
